The molecules listed here are annotated with their IC50.
Target: IKBKB (IKKβ) (Homo sapiens, UniProt O14920)
Construct: purchased Life Technologies (assay performed by the vendor)
Experiment: Z'-LYTE IKKβ assay (Life Technologies)
Type: biochemical
Procedure: IKKα and IKKβ inhibitory activity was determined using three different assays: a dissociation enhanced ligand fluorescent immunoassay (DELFIA) based on the protocol of HTScan™ IKKβ Kinase Assay (Cell Signaling Technology, USA); an Adapta IKKα assay (performed by Life Technologies); a Z′-LYTE™ IKKβ assay (performed by Life Technologies). The reaction was performed in low volume NBS, black 384-well plates (Corning model 4514). The test compounds were screened in 1% DMSO (final) in the well. […]
Please give a number only; it is taken to be in µM.

Sample records with IC50:
molecule	targetSystem	IC50 [µM]
CN1CCN(Cc2cc3c(-c4ccc5[nH]nc(N)c5c4)ccnc3[nH]2)CC1	IKBKB (IKKβ) (Homo sapiens, UniProt O14920)	0.3
Nc1n[nH]c2ccc(-c3ccnc4[nH]c(C5CCCCO5)cc34)cc12 (centres unmarked)	IKBKB (IKKβ) (Homo sapiens, UniProt O14920)	0.225
CC(C)(C)Cc1cc2c(-c3ccc4[nH]nc(N)c4c3)ccnc2[nH]1	IKBKB (IKKβ) (Homo sapiens, UniProt O14920)	0.483

Briefly, IC50 measured for `Nc1n[nH]c2ccc(-c3ccnc4[nH]c(CN5CCCCCC5)cc34)cc12` : 0.35

IC50 reading for `Nc1n[nH]c2ccc(-c3ccnc4[nH]c(CCCN5CCOCC5)cc34)cc12` : 0.111

---

molecular target: Recombinant IKKα (Homo sapiens, UniProt O15111); construct: purchased Millipore, Dundee, UK; assay: DELFIA IKKα kinase assay (apparent Ki, Cheng-Prusoff); format: biochemical; settings: DELFIA assay (first line of an example)
readoutName: pKi
Remember, pKi is on a log scale: it is -log10 of the molar concentration.

compound	targetSystem	pKi
CC(C)(C)C#Cc1cc(-c2ccnc3[nH]c(C(C)(C)O)cc23)cc2c(N)n[nH]c12 [Example 298]	Recombinant IKKα (Homo sapiens, UniProt O15111)	7.80
Nc1n[nH]c2c(-c3ccc(O)cc3)cc(-c3ccnc(NC4COC4)c3)cc12 [Example 324]	Recombinant IKKα (Homo sapiens, UniProt O15111)	5.09
Nc1n[nH]c2c(C#CCCCCC(=O)O)cc(-c3ccnc4[nH]ccc34)cc12 [Example 215]	Recombinant IKKα (Homo sapiens, UniProt O15111)	7.42
Nc1n[nH]c2c(C#CCCCC(=O)O)cc(-c3ccnc4[nH]ccc34)cc12 [Example 214]	Recombinant IKKα (Homo sapiens, UniProt O15111)	7.68

Form: compound = Nc1n[nH]c2ccc(-c3ccnc4[nH]c(CCC5CCCCC5)cc34)cc12 [Example 222] ; pKi = 7.72

pKi measured on COCCNCc1cc2c(-c3ccc4[nH]nc(N)c4c3)ccnc2[nH]1 [Example 254] = 7.74

Entry COC(=O)Nc1cc(-c2cc(-c3ccc(NC(C)=O)cc3)c3[nH]nc(N)c3c2)ccn1 [Example 326] , pKi reported as 7.85

Form: compound = COC(=O)c1cc2c(-c3cc(C#CC(C)(C)C)c4[nH]nc(N)c4c3)ccnc2[nH]1 [Example 299] ; pKi = 8.00

---

Biological target: Recombinant IKKβ (Homo sapiens, UniProt O14920)
Construct: purchased Millipore, Dundee, UK
Experiment: DELFIA IKKβ kinase assay (apparent Ki, Cheng-Prusoff)
Format: biochemical
Settings: non-italicised figure: DELFIA assay
Method: IKKα and IKKβ inhibitory activity was determined using three different assays: a dissociation enhanced ligand fluorescent immunoassay (DELFIA) based on the protocol of HTScan™ IKKβ Kinase Assay (Cell Signaling Technology, USA); an Adapta IKKα assay (performed by Life Technologies); a Z′-LYTE™ IKKβ assay (performed by Life Technologies). […]
The reader will find reported pKi values listed item by item below.
API: returns pKi as number; meaning -log10 of concentration in mol/L.

In plain terms, `COc1ccccc1C#Cc1c(-c2ccc3[nH]nc(N)c3c2)ccnc1N` has a documented pKi of 6.32

So for `CC(C)(N)C#Cc1c(-c2ccc3[nH]nc(N)c3c2)ccnc1N` , the logged pKi turned out to be 6.49

Value of measured pKi for the entry `Nc1n[nH]c2ccc(-c3ccnc(NC(=O)Nc4cccc(C(=O)Nc5ccccc5)c4)c3)cc12` : 6.38

pKi measured on `CC(C)(C)C#Cc1cc(-c2ccnc(NC3COC3)c2)cc2c(N)n[nH]c12` = 6.11

---

log10 Ki values, listed per item
Target: Recombinant IKKα (Homo sapiens)
Construct: purchased Millipore, Dundee, UK
Sequence (O15111 1-745): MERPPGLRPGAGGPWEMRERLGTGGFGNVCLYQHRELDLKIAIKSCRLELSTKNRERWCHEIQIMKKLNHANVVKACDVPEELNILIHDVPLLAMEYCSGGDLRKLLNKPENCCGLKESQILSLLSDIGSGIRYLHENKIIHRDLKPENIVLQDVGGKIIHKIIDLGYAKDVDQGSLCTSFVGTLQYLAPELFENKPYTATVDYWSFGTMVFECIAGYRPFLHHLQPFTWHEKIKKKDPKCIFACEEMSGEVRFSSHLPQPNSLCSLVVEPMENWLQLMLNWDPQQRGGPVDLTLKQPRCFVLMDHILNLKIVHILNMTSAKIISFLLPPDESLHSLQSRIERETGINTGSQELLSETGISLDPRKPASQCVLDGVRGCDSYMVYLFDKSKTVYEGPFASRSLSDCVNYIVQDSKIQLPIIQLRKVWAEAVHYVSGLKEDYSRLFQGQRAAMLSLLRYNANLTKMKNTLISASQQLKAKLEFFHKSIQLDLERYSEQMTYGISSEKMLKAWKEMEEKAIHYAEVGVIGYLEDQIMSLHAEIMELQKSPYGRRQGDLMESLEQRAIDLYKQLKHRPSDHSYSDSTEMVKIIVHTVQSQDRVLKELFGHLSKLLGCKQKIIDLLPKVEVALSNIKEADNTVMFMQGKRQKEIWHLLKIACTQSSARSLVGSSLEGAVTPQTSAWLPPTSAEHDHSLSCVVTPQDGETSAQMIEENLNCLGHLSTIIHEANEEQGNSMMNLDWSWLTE
Assay: DELFIA IKKα kinase assay (apparent Ki, Cheng-Prusoff)
Type: biochemical
Conditions: non-italicised figure: DELFIA assay
The common logarithm of Ki in nM is what is listed.

Example entries and their recorded answers appear below.
smilesData	log10 Ki
Nc1n[nH]c2ccc(-c3ccnc(NC(=O)Nc4cccc(OCc5cccc(F)c5)c4)c3)cc12	1.97
CC1(C#Cc2cc(-c3ccnc(NC4CC4)c3)cc3c(N)n[nH]c23)COC1	1.28
CC(C)(N)C#Cc1c(-c2ccc3[nH]nc(N)c3c2)ccnc1N	0.85
CN(CCCO)c1cc(-c2ccc3[nH]nc(N)c3c2)ccn1	3.28
CC(C)(C)C#Cc1c(-c2ccc3[nH]nc(N)c3c2)ccnc1N	0.78
CCCNC(=O)Nc1cc(-c2ccc3[nH]nc(N)c3c2)ccn1	1.85

Per the record, `CS(=O)(=O)c1cccc(-c2cc(-c3ccnc(N)c3)cc3c(N)n[nH]c23)c1` has log10 Ki of 1.90

Value of measured log10 Ki for the entry `CC(C)(C)C#Cc1cc(-c2ccnc(NC(=O)CO)c2)cc2c(N)n[nH]c12` : 1.30

// field: log10 Ki; key: `Nc1ccc(C#Cc2c(-c3ccc4[nH]nc(N)c4c3)ccnc2N)cc1` ; value = 0.90

---

target: Recombinant IKKβ (Homo sapiens); construct: purchased Millipore, Dundee, UK; assay: DELFIA IKKβ kinase assay (apparent Ki, Cheng-Prusoff); format: biochemical; conditions: non-italicised figure: DELFIA assay
# Lookup of reported Ki keyed by entry
Give the figure together with its unit, number first.

Use these answered entries as a reference point.
compound	readoutName	testValue
Nc1cc(-c2cc(-c3ccc(CN4CCOCC4)cc3)c3[nH]nc(N)c3c2)ccn1 [Example 122]	Ki	1260 nM
Nc1n[nH]c2ccc(-c3ccnc(NC(=O)NCc4ccncc4)c3)cc12 [Example 49]	Ki	1840 nM
CC(C)(C)C#Cc1cc(-c2cc(N)ncc2F)cc2c(N)n[nH]c12 [Example 148]	Ki	2330 nM
Nc1cc(-c2cc(-c3ccc(CO)cc3)c3[nH]nc(N)c3c2)ccn1 [Example 118]	Ki	406 nM

Please look at the following compound next.
Ki reported for this compound Cc1ccccc1NC(=O)Nc1cc(-c2ccc3[nH]nc(N)c3c2)ccn1 [Example 66] : 1050 nM

---

Recorded log10(IC50) by entry
Target: IKBKB (IKKβ) (Homo sapiens, UniProt O14920)
Construct: purchased Life Technologies (assay performed by the vendor)
Sequence (O14920 1-756): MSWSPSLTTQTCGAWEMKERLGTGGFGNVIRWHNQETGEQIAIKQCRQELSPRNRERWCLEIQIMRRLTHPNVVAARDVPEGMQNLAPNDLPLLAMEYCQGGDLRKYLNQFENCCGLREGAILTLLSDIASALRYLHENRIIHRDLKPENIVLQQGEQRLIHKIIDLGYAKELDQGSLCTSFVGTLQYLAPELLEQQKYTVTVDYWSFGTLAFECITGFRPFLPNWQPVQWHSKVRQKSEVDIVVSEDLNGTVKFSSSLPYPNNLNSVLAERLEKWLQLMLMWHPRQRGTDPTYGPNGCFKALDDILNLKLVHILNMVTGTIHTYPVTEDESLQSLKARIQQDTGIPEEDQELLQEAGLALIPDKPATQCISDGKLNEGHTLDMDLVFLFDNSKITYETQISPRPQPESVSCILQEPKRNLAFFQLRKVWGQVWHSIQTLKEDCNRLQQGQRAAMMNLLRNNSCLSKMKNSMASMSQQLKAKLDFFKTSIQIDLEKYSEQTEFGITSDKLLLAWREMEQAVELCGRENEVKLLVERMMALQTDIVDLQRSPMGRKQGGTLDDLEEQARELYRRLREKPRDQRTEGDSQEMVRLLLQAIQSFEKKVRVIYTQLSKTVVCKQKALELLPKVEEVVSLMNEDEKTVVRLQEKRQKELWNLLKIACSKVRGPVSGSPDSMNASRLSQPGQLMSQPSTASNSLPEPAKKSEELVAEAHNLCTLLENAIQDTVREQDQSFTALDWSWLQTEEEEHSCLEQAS
Assay: Z'-LYTE IKKβ assay (Life Technologies)
Type: biochemical
Record value = log10 of IC50 given in nM.

smilesData	testValue
Nc1n[nH]c2c(C#CC3CCCCC3)cc(-c3ccnc4[nH]ccc34)cc12	4.13

log10(IC50) reported for this compound `Nc1n[nH]c2c(C#CC3CC3)cc(-c3ccnc4[nH]ccc34)cc12` : 2.67

Input `Nc1n[nH]c2ccc(-c3ccnc4[nH]c(CN5CCC(F)(F)CC5)cc34)cc12` . Output log10(IC50): 2.46

`CN1CCN(C(=O)c2cc3c(-c4ccc5[nH]nc(N)c5c4)ccnc3[nH]2)CC1` yielded log10(IC50) of 2.80

# log10(IC50) of `Nc1n[nH]c2ccc(-c3ccnc4[nH]c(CC5CCCCC5)cc34)cc12` = 2.82

Reported log10(IC50) ( `CC(C)(C)OCc1cc2c(-c3ccc4[nH]nc(N)c4c3)ccnc2[nH]1` ) = 2.59

So for `Nc1n[nH]c2ccc(-c3ccnc4[nH]c(CNC5CCCCC5)cc34)cc12` , the logged log10(IC50) turned out to be 2.61

// log10(IC50) value for `Nc1n[nH]c2ccc(-c3ccnc4[nH]c(CC5CCOCC5)cc34)cc12` : 1.78

Where these numbers come from: patent US20250304576A1
